- Assayed Target: T1, Cynomolgus CXCR2 (cynomolgus, UniProt Q28519 3-353 (rhesus entry))
- T1 construct: On transfected HEK293T or RBL-2H3 cells; native on cynomolgus neutrophils in the WBSC assay; also called cCXCR2; cynoCXCR2
- T1 chain: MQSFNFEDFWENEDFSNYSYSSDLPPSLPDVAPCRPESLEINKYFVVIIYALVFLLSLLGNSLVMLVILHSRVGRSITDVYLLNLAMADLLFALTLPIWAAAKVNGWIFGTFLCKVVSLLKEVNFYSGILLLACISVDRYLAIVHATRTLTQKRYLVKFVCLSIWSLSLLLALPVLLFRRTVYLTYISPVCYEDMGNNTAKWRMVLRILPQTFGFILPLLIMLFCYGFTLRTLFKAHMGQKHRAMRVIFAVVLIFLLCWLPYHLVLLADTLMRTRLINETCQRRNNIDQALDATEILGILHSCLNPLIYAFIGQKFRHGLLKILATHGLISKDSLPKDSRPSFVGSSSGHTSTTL
- Assay Procedure: FACS competition vs 3 nM FMAT-Blue Gro-α
pIC50: −log10 of the molar value.
Classify by measured pIC50: satisfied if it is equal to or exceeds 8, not satisfied if it is smaller.

Prompt: Does the binder CXCR20015 (other, Two different VHH joined by a GlySer linker; also called 2B2-35GS-137B7; not shown: C-terminal c-myc tag and His6 tag coded by pAX100) EVQLVESGGELVQPGGSLRLSCAASGSILTINAMGWYRQAPGKQRELVVRRTRGGSTTYQDSVKGRFTISADIAKKTMYLQMNSLKPEDTAVYYCMLDDRGGVYWGQGTQVTVSSGGGGSGGGGSGGGGSGGGGSGGGGSGGGGSGGGGSEVQLVESGGGLVQPGGSVRLSCVASGIIFRLSALGWTRQGPGKAREWVAGINSDGTTNYADPVKGRFTISRDNAKNTIYLHMDMLKPEDTAVYYCASGKYRGQGTQVTVSS have recorded pIC50 that is 8 or more?
Completion: not satisfied

Prompt: Item CXCR20014 (bispecific antibody, Biparatopic: two VHH joined by a GlySer linker; also called 97A9-35GS-2B2; 97A9-2B2; not shown: C-terminal c-myc tag and His6 tag coded by pAX100) EVQLVESGGGLVQPGGSLRLSCVASGSIVRINTMGWYRQTPGKQRELVADITSGGNINYIDAVKGRFTISRDNTKNTVYLQMNSLKPEDTAVYYCNAEIVVLVGVWTQRARTGNYWGQGTQVTVSSGGGGSGGGGSGGGGSGGGGSGGGGSGGGGSGGGGSEVQLVESGGELVQPGGSLRLSCAASGSILTINAMGWYRQAPGKQRELVVRRTRGGSTTYQDSVKGRFTISADIAKKTMYLQMNSLKPEDTAVYYCMLDDRGGVYWGQGTQVTVSS with pIC50 of 8 or above?
Completion: satisfied

Prompt: Textbook exercise: given the entry CXCR20011 (VHH, Bivalent: two VHH joined by a GlySer linker; also called 97A9-35GS-97A9; not shown: C-terminal c-myc tag and His6 tag coded by pAX100) EVQLVESGGGLVQPGGSLRLSCVASGSIVRINTMGWYRQTPGKQRELVADITSGGNINYIDAVKGRFTISRDNTKNTVYLQMNSLKPEDTAVYYCNAEIVVLVGVWTQRARTGNYWGQGTQVTVSSGGGGSGGGGSGGGGSGGGGSGGGGSGGGGSGGGGSEVQLVESGGGLVQPGGSLRLSCVASGSIVRINTMGWYRQTPGKQRELVADITSGGNINYIDAVKGRFTISRDNTKNTVYLQMNSLKPEDTAVYYCNAEIVVLVGVWTQRARTGNYWGQGTQVTVSS , state whether its pIC50 is greater than or equal to 8.
Completion: not satisfied

Prompt: Please indicate if the recorded pIC50 for CXCR20028 (other, Biparatopic: two VHH joined by a GlySer linker; also called 97A9-35GS-54B12; 97A9-54B12; not shown: C-terminal c-myc tag and His6 tag coded by pAX100) EVQLVESGGGLVQPGGSLRLSCVASGSIVRINTMGWYRQTPGKQRELVADITSGGNINYIDAVKGRFTISRDNTKNTVYLQMNSLKPEDTAVYYCNAEIVVLVGVWTQRARTGNYWGQGTQVTVSSGGGGSGGGGSGGGGSGGGGSGGGGSGGGGSGGGGSEVQLVESGGGLVQAGGSLTLSCAVSGSTFRINTMGWYRRAPGKQRELVAARDRGGYINYVDSVKGRFTVSRDNAKPTMYLQMNSLKPEDTAVYYCHAGTQDRTGRNFDRWGQGTQVTVSS meets or exceeds 8.
Completion: satisfied

Prompt: Decide: pIC50 of CXCR20033 (bispecific antibody, Biparatopic: two VHH joined by a GlySer linker; also called 163E3-35GS-2B2; 163E3-2B2; not shown: C-terminal c-myc tag and His6 tag coded by pAX100) EVQLVESGGGLVQPGGSLRLSCVASGRIFSSNAMGWFRQAPGKEREFVAAITWRSGGSAYYADSAKGRFTISRDNAKNTVYLQMNSLKPEDTAVYYCAAGGSSWLSFPPDYWGQGTQVTVSSGGGGSGGGGSGGGGSGGGGSGGGGSGGGGSGGGGSEVQLVESGGELVQPGGSLRLSCAASGSILTINAMGWYRQAPGKQRELVVRRTRGGSTTYQDSVKGRFTISADIAKKTMYLQMNSLKPEDTAVYYCMLDDRGGVYWGQGTQVTVSS >= 8?
Completion: satisfied
